test: Metabolic stability in dog liver microsomes; type: in vitro ADME; conditions: Beagle

{"columns": ["record-smiles", "half-life at 1 μM (min)"],
 "data": [
  ["CC1(C)C(=O)C(C#N)=C[C@]2(C)C3=CC(=O)[C@@H]4[C@@H]5C[C@@](C)(Cc6nnco6)CC[C@]5(C)CC[C@@]4(C)[C@]3(C)CC[C@@H]12", 8.8],
  ["Cc1nnc([C@@]2(C)CC[C@]3(C)CC[C@]4(C)[C@H](C(=O)C=C5[C@@]6(C)C=C(C#N)C(=O)C(C)(C)[C@@H]6CC[C@]54C)[C@@H]3C2)o1", 54],
  ["CC1(C)C(=O)C(C#N)=C[C@]2(C)C3=CC(=O)[C@@H]4[C@@H]5C[C@@](C)(c6nnc(C(N)=O)o6)CC[C@]5(C)CC[C@@]4(C)[C@]3(C)CC[C@@H]12", 34.2],
  ["CC1(C)C(=O)C(C#N)=C[C@]2(C)C3=CC(=O)[C@@H]4[C@@H]5C[C@@](C)(c6nnco6)CC[C@]5(C)CC[C@@]4(C)[C@]3(C)CC[C@@H]12", 19.1]
]}

====

Experiment: Metabolic stability in human liver microsomes
Assay type: in vitro ADME
Protocol: The metabolic stability of test compounds was examined in CD-1 mouse, Sprague Dawley rat, Beagle dog, cynomolgus monkey, and human liver microsomes. Test compound (final concentration 1 μM) was mixed with diluted liver microsomes from each of the 5 species and a small aliquot was taken at 0, 5, 10, 20, 30, and 60 minutes for LC/MS/MS analysis. Intrinsic clearance and half-life were calculated.
reported-endpoint: log10 half-life at 1 μM (log10 of the value in min)

{"columns": ["compound", "reading"],
 "data": [
  ["CNC(=NC#N)NC[C@]12CCC(C)(C)C[C@H]1[C@H]1C(=O)C=C3[C@@]4(C)C=C(C#N)C(=O)C(C)(C)[C@@H]4CC[C@@]3(C)[C@]1(C)CC2", 1.39],
  ["CC1(C)C(=O)C(C#N)=C[C@]2(C)C3=CC(=O)[C@@H]4[C@@H]5C[C@@](C)(C#N)CC[C@]5(C)CC[C@@]4(C)[C@]3(C)CC[C@@H]12", 0.49],
  ["COC(=O)[C@]12CCC(C)(C)C[C@H]1[C@H]1C(=O)C=C3[C@@]4(C)C=C(C#N)C(=O)C(C)(C)[C@@H]4CC[C@@]3(C)[C@]1(C)CC2 [Control, reference compound]", 1.12],
  ["CC1(C)C(=O)C(C#N)=C[C@]2(C)C3=CC(=O)[C@@H]4[C@@H]5C[C@@](C)(N6CC(O)C6)CC[C@]5(C)CC[C@@]4(C)[C@]3(C)CC[C@@H]12", 0.83],
  ["CC1(C)C(=O)C(C#N)=C[C@]2(C)C3=CC(=O)[C@@H]4[C@@H]5C[C@@](C)(Cc6nnco6)CC[C@]5(C)CC[C@@]4(C)[C@]3(C)CC[C@@H]12", 1.15],
  ["CC1(C)C(=O)C(C#N)=C[C@]2(C)C3=CC(=O)[C@@H]4[C@@H]5C[C@@](C)(c6nnco6)CC[C@]5(C)CC[C@@]4(C)[C@]3(C)CC[C@@H]12", 1.12],
  ["Cc1nnc([C@@]2(C)CC[C@]3(C)CC[C@]4(C)[C@H](C(=O)C=C5[C@@]6(C)C=C(C#N)C(=O)C(C)(C)[C@@H]6CC[C@]54C)[C@@H]3C2)o1", 0.87],
  ["CC(=NC#N)NC[C@]12CCC(C)(C)C[C@H]1[C@H]1C(=O)C=C3[C@@]4(C)C=C(C#N)C(=O)C(C)(C)[C@@H]4CC[C@@]3(C)[C@]1(C)CC2", 1.56],
  ["CC1(C)C(=O)C(C#N)=C[C@]2(C)C3=CC(=O)[C@@H]4[C@@H]5C[C@@](C)(c6nnc(C(N)=O)o6)CC[C@]5(C)CC[C@@]4(C)[C@]3(C)CC[C@@H]12", 1.11]
]}

====

Listing of entries alongside the reported AUC(0-t).
test: Pharmacokinetic studies in Sprague Dawley rats (oral gavage and IV); format: in vivo; settings: rat, IV (1 mg/kg), male SD rats, plasma, read-out: AUC0-24 h

{"columns": ["record-smiles", "AUC(0-t) (ng·h/mL)"],
 "data": [
  ["CC1(C)C(=O)C(C#N)=C[C@]2(C)C3=CC(=O)[C@@H]4[C@@H]5C[C@@](C)(c6nnco6)CC[C@]5(C)CC[C@@]4(C)[C@]3(C)CC[C@@H]12", 301],
  ["CC1(C)C(=O)C(C#N)=C[C@]2(C)C3=CC(=O)[C@@H]4[C@@H]5C[C@@](C)(N6C(=O)CCC6=O)CC[C@]5(C)CC[C@@]4(C)[C@]3(C)CC[C@@H]12", 267],
  ["CC1(C)C(=O)C(C#N)=C[C@]2(C)C3=CC(=O)[C@@H]4[C@@H]5C[C@@](C)(c6nnc(C(N)=O)o6)CC[C@]5(C)CC[C@@]4(C)[C@]3(C)CC[C@@H]12", 263]
]}

====

assay: Pharmacokinetic studies in Sprague Dawley rats (oral gavage and IV); assay type: in vivo; conditions: rat, Oral (5 mg/kg), male SD rats, plasma, read-out: AUC0-24 h
Would you mind labelling by AUC(0-t)? At or over 300 ng·h/mL is Condition met, under is Condition not met.

{"columns": ["molecule", "category"],
 "data": [
  ["CC1(C)C(=O)C(C#N)=C[C@]2(C)C3=CC(=O)[C@@H]4[C@@H]5C[C@@](C)(c6nnc(C(=O)NC7CC7)o6)CC[C@]5(C)CC[C@@]4(C)[C@]3(C)CC[C@@H]12 [Example 19]", "Condition met"],
  ["CC1(C)C(=O)C(C#N)=C[C@]2(C)C3=CC(=O)[C@@H]4[C@@H]5C[C@@](C)(C#N)CC[C@]5(C)CC[C@@]4(C)[C@]3(C)CC[C@@H]12 [Example 2]", "Condition met"],
  ["Cc1nnc([C@@]2(C)CC[C@]3(C)CC[C@]4(C)[C@H](C(=O)C=C5[C@@]6(C)C=C(C#N)C(=O)C(C)(C)[C@@H]6CC[C@]54C)[C@@H]3C2)o1 [Example 1]", "Condition met"],
  ["CC1(C)C(=O)C(C#N)=C[C@]2(C)C3=CC(=O)[C@@H]4[C@@H]5C[C@@](C)(c6nnc(C(N)=O)o6)CC[C@]5(C)CC[C@@]4(C)[C@]3(C)CC[C@@H]12 [Example 25]", "Condition not met"],
  ["CC(=NC#N)NC[C@]12CCC(C)(C)C[C@H]1[C@H]1C(=O)C=C3[C@@]4(C)C=C(C#N)C(=O)C(C)(C)[C@@H]4CC[C@@]3(C)[C@]1(C)CC2 [Example 4]", "Condition not met"],
  ["CC1(C)C(=O)C(C#N)=C[C@]2(C)C3=CC(=O)[C@@H]4[C@@H]5C[C@@](C)(N6CCOC6=O)CC[C@]5(C)CC[C@@]4(C)[C@]3(C)CC[C@@H]12 [Example 13]", "Condition not met"],
  ["CC1(C)C(=O)C(C#N)=C[C@]2(C)C3=CC(=O)[C@@H]4[C@@H]5C[C@@](C)(c6nnco6)CC[C@]5(C)CC[C@@]4(C)[C@]3(C)CC[C@@H]12 [Example 9]", "Condition met"],
  ["CC1(C)C(=O)C(C#N)=C[C@]2(C)C3=CC(=O)[C@@H]4[C@@H]5C[C@@](C)(N6CC(O)C6)CC[C@]5(C)CC[C@@]4(C)[C@]3(C)CC[C@@H]12 [Example 26]", "Condition not met"],
  ["COC(=O)[C@]12CCC(C)(C)C[C@H]1[C@H]1C(=O)C=C3[C@@]4(C)C=C(C#N)C(=O)C(C)(C)[C@@H]4CC[C@@]3(C)[C@]1(C)CC2 [Control, reference compound]", "Condition not met"]
]}

====

assay: Pharmacokinetic studies in Sprague Dawley rats (oral gavage and IV); format: in vivo; conditions: rat, IV (1 mg/kg), male SD rats, plasma, read-out: AUC0-24 h

{"columns": ["compound", "AUC(0-t)"],
 "data": [
  ["COC(=O)[C@]12CCC(C)(C)C[C@H]1[C@H]1C(=O)C=C3[C@@]4(C)C=C(C#N)C(=O)C(C)(C)[C@@H]4CC[C@@]3(C)[C@]1(C)CC2 [Control, reference compound]", "291 ng·h/mL"],
  ["CC1(C)C(=O)C(C#N)=C[C@]2(C)C3=CC(=O)[C@@H]4[C@@H]5C[C@@](C)(N6CCOC6=O)CC[C@]5(C)CC[C@@]4(C)[C@]3(C)CC[C@@H]12", "206 ng·h/mL"],
  ["Cc1nnc([C@@]2(C)CC[C@]3(C)CC[C@]4(C)[C@H](C(=O)C=C5[C@@]6(C)C=C(C#N)C(=O)C(C)(C)[C@@H]6CC[C@]54C)[C@@H]3C2)o1", "258 ng·h/mL"]
]}

====

Consider the following molecules and their measured CLint scaled at 1 μM readings.
assay: Metabolic stability in monkey liver microsomes; type: in vitro ADME, cynomolgus monkey
reported-endpoint: CLint scaled at 1 μM (mL/min/kg)

{"columns": ["molecule", "reported-endpoint", "reading"],
 "data": [
  ["CC1(C)C(=O)C(C#N)=C[C@]2(C)C3=CC(=O)[C@@H]4[C@@H]5C[C@@](C)(c6nnc(C(N)=O)o6)CC[C@]5(C)CC[C@@]4(C)[C@]3(C)CC[C@@H]12", "CLint scaled at 1 μM", 294],
  ["COC(=O)[C@]12CCC(C)(C)C[C@H]1[C@H]1C(=O)C=C3[C@@]4(C)C=C(C#N)C(=O)C(C)(C)[C@@H]4CC[C@@]3(C)[C@]1(C)CC2 [Control, reference compound]", "CLint scaled at 1 μM", 949],
  ["Cc1nnc([C@@]2(C)CC[C@]3(C)CC[C@]4(C)[C@H](C(=O)C=C5[C@@]6(C)C=C(C#N)C(=O)C(C)(C)[C@@H]6CC[C@]54C)[C@@H]3C2)o1", "CLint scaled at 1 μM", 269],
  ["CC1(C)C(=O)C(C#N)=C[C@]2(C)C3=CC(=O)[C@@H]4[C@@H]5C[C@@](C)(C#N)CC[C@]5(C)CC[C@@]4(C)[C@]3(C)CC[C@@H]12", "CLint scaled at 1 μM", 782],
  ["CNC(=NC#N)NC[C@]12CCC(C)(C)C[C@H]1[C@H]1C(=O)C=C3[C@@]4(C)C=C(C#N)C(=O)C(C)(C)[C@@H]4CC[C@@]3(C)[C@]1(C)CC2", "CLint scaled at 1 μM", 156],
  ["CC1(C)C(=O)C(C#N)=C[C@]2(C)C3=CC(=O)[C@@H]4[C@@H]5C[C@@](C)(N6CC(O)C6)CC[C@]5(C)CC[C@@]4(C)[C@]3(C)CC[C@@H]12", "CLint scaled at 1 μM", 752],
  ["CC(=NC#N)NC[C@]12CCC(C)(C)C[C@H]1[C@H]1C(=O)C=C3[C@@]4(C)C=C(C#N)C(=O)C(C)(C)[C@@H]4CC[C@@]3(C)[C@]1(C)CC2", "CLint scaled at 1 μM", 104],
  ["CC1(C)C(=O)C(C#N)=C[C@]2(C)C3=CC(=O)[C@@H]4[C@@H]5C[C@@](C)(Cc6nnco6)CC[C@]5(C)CC[C@@]4(C)[C@]3(C)CC[C@@H]12", "CLint scaled at 1 μM", 602],
  ["CC1(C)C(=O)C(C#N)=C[C@]2(C)C3=CC(=O)[C@@H]4[C@@H]5C[C@@](C)(c6nnco6)CC[C@]5(C)CC[C@@]4(C)[C@]3(C)CC[C@@H]12", "CLint scaled at 1 μM", 270]
]}
